Tested on: LG0567-F671-PDC complex spheroids viability
EXPERIMENT_SUMMARY: Anticancer human tumor LG0567-F671-PDC patient-derived lung adenocarcinoma cell line growth inhibition [RAS]; active means viability on the fitted dose curve at most 10% of control; inactive means the rest
EXPERIMENTAL_PARAMETERS: second compound 0.03 µM; first compound 0.00949 µM
Write down the outcome that applies. Available outcomes: yes (active), no (inactive)

[[record]]
molecule = "CC1(C)CCC(Nc2ncc(C(F)(F)F)c(-c3c[nH]c4c(P(C)(C)=O)c(C#N)ccc34)n2)CN1 (centres undefined) + CCn1c(-c2cccnc2C(C)OC)c2c3cc(ccc31)N1CCOC(CC(NC(=O)C(C(C)C)N(C)C(=O)C3(F)CCN(C(=O)C#CC(C)(C)N(C)C)CC3)C(=O)N3CCCC(N3)C(=O)OCC(C)(C)C2)C1"
experimental_system = "LG0567-F671-PDC complex spheroids viability"
class_assignment = "no"

[[record]]
molecule = "CCc1c2c(nc3ccc(O)cc13)-c1cc3c(c(=O)n1C2)COC(=O)[C@]3(O)CC + CCn1c(-c2cccnc2C(C)OC)c2c3cc(ccc31)N1CCOC(CC(NC(=O)C(C(C)C)N(C)C(=O)C3(F)CCN(C(=O)C#CC(C)(C)N(C)C)CC3)C(=O)N3CCCC(N3)C(=O)OCC(C)(C)C2)C1"
experimental_system = "LG0567-F671-PDC complex spheroids viability"
class_assignment = "yes"


Query: # outcome recorded in this test, key = CCc1c2c(nc3ccc(O)cc13)-c1cc3c(c(=O)n1C2)COC(=O)[C@]3(O)CC + CCn1c(-c2cc(N3CCN(C)CC3)cnc2C(C)OC)c2c3cc(ccc31)-c1csc(n1)CC(NC(=O)C1CC1C)C(=O)N1CCCC(N1)C(=O)OCC(C)(C)C2
Result: yes

Query: Now try CC1(C)CCC(Nc2ncc(C(F)(F)F)c(-c3c[nH]c4c(P(C)(C)=O)c(C#N)ccc34)n2)CN1 (centres undefined) + CCn1c(-c2cc(N3CCN(C)CC3)cnc2C(C)OC)c2c3cc(ccc31)-c1csc(n1)CC(NC(=O)C1CC1C)C(=O)N1CCCC(N1)C(=O)OCC(C)(C)C2 .
Result: yes

* * *

Tested on: LG0567-F671-PDC complex spheroids viability
EXPERIMENT_SUMMARY: Anticancer human tumor LG0567-F671-PDC cell line growth inhibition [RAS]; active = viability on the fitted dose curve at most 10% of control; inactive = the rest;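 further: spheroids exposed to compound for seven days before readout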
EXPERIMENTAL_PARAMETERS: second compound 0.1 µM; first compound 0.03 µM
Text: RAS pathway inhibitors in Combinations in Complex Spheroids A high-throughput screen of multi-cell type tumor spheroids was designed to identify active combinations of RAS pathway inhibitors and targeted small molecules. Complex spheroids include a stromal component modeled by human endothelial cells (HUVEC) and fibroblasts modeled by human mesenchymal stem cells (MSCs). […] Compounds. […] If the clinical Cmax for an agent had not been determined, the highest concentration tested was 10 microM. […]
Write down the outcome that applies. Available outcomes: active, inactive

[[record]]
compound = "CC1(C)CCC(Nc2ncc(C(F)(F)F)c(-c3c[nH]c4c(P(C)(C)=O)c(C#N)ccc34)n2)CN1 (centres undefined) + C=CC(=O)N1CCN(c2nc(OCC3CCCN3C)nc3c(F)c(-c4nc(N)cc(C)c4C(F)(F)F)c(Cl)cc23)C(C)C1"
experimental_system = "LG0567-F671-PDC complex spheroids viability"
class_assignment = "inactive"


Query: # outcome recorded in this test, key = CC1(C)CCC(Nc2ncc(C(F)(F)F)c(-c3c[nH]c4c(P(C)(C)=O)c(C#N)ccc34)n2)CN1 (centres undefined) + C#Cc1c(F)ccc2cc(O)cc(-c3ncc4c(N5CC6CCC(C5)N6)nc(OCC56CCCN5CC(F)C6)nc4c3F)c12
Result: inactive

Query: Now try CCc1c2c(nc3ccc(O)cc13)-c1cc3c(c(=O)n1C2)COC(=O)[C@]3(O)CC + C=CC(=O)N1CCN(c2nc(OCC3CCCN3C)nc3c(F)c(-c4nc(N)cc(C)c4C(F)(F)F)c(Cl)cc23)C(C)C1 .
Result: active

Query: Now try CCc1c2c(nc3ccc(O)cc13)-c1cc3c(c(=O)n1C2)COC(=O)[C@]3(O)CC + C#Cc1c(F)ccc2cc(O)cc(-c3ncc4c(N5CC6CCC(C5)N6)nc(OCC56CCCN5CC(F)C6)nc4c3F)c12 .
Result: inactive

* * *

System: LG0567-F671-PDC complex spheroids viability
EXPERIMENT_SUMMARY: Anticancer human tumor LG0567-F671-PDC cell line growth inhibition [RAS];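 further: spheroids exposed to compound for seven days before readout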
EXPERIMENTAL_PARAMETERS: second compound 0.03 µM; first compound 1 µM; active compounds read low
We label by threshold. Values of viability, T/C strictly beneath 6% are satisfied. Values of 6% and up are not satisfied.

Worked examples, 6 compounds total:
[[record]]
compound = "CC(=O)OC12COC1CC(O)C1(C)C(=O)C(O)C3=C(C)C(OC(=O)C(O)C(NC(=O)OC(C)(C)C)c4ccccc4)CC(O)(C(OC(=O)c4ccccc4)C21)C3(C)C (centres undefined) + CCn1c(-c2cccnc2C(C)OC)c2c3cc(ccc31)N1CCOC(CC(NC(=O)C(C(C)C)N(C)C(=O)C3(F)CCN(C(=O)C#CC(C)(C)N(C)C)CC3)C(=O)N3CCCC(N3)C(=O)OCC(C)(C)C2)C1"
class_assignment = "not satisfied"

[[record]]
compound = "C=CC(=O)N1CCN(c2nc(OCC3CCCN3C)nc3c(F)c(-c4nc(N)cc(C)c4C(F)(F)F)c(Cl)cc23)C(C)C1 (centres undefined) + CCn1c(-c2cccnc2C(C)OC)c2c3cc(ccc31)N1CCOC(CC(NC(=O)C(C(C)C)N(C)C(=O)C3(F)CCN(C(=O)C#CC(C)(C)N(C)C)CC3)C(=O)N3CCCC(N3)C(=O)OCC(C)(C)C2)C1"
class_assignment = "not satisfied"

[[record]]
compound = "O=C(c1ccc(F)c(F)c1Nc1ccc(I)cc1F)N1CC(O)([C@@H]2CCCCN2)C1 + CCn1c(-c2cccnc2C(C)OC)c2c3cc(ccc31)N1CCOC(CC(NC(=O)C(C(C)C)N(C)C(=O)C3(F)CCN(C(=O)C#CC(C)(C)N(C)C)CC3)C(=O)N3CCCC(N3)C(=O)OCC(C)(C)C2)C1"
class_assignment = "satisfied"

[[record]]
compound = "CC(Nc1ccc2c(c1)OCCn1cc(N3C(=O)OCC3C(F)F)nc1-2)C(N)=O (centres undefined) + CCn1c(-c2cccnc2C(C)OC)c2c3cc(ccc31)N1CCOC(CC(NC(=O)C(C(C)C)N(C)C(=O)C3(F)CCN(C(=O)C#CC(C)(C)N(C)C)CC3)C(=O)N3CCCC(N3)C(=O)OCC(C)(C)C2)C1"
class_assignment = "satisfied"

[[record]]
compound = "NC1c2ccccc2OC12CCN(c1cnc3c(N4CCCc5ncccc54)n[nH]c3n1)CC2 (centres undefined) + CCn1c(-c2cccnc2C(C)OC)c2c3cc(ccc31)N1CCOC(CC(NC(=O)C(C(C)C)N(C)C(=O)C3(F)CCN(C(=O)C#CC(C)(C)N(C)C)CC3)C(=O)N3CCCC(N3)C(=O)OCC(C)(C)C2)C1"
class_assignment = "satisfied"

[[record]]
compound = "CC(Nc1ccc2c(c1)OCCn1cc(N3C(=O)OCC3C(F)F)nc1-2)C(N)=O (centres undefined) + CCn1c(-c2cc(N3CCN(C)CC3)cnc2C(C)OC)c2c3cc(ccc31)-c1csc(n1)CC(NC(=O)C1CC1C)C(=O)N1CCCC(N1)C(=O)OCC(C)(C)C2"
class_assignment = "satisfied"


Query: Please check: viability, T/C for CCN1CCN(Cc2ccc(Nc3ncc(F)c(-c4cc(F)c5nc(C)n(C(C)C)c5c4)n3)nc2)CC1 + CCn1c(-c2cc(N3CCN(C)CC3)cnc2C(C)OC)c2c3cc(ccc31)-c1csc(n1)CC(NC(=O)C1CC1C)C(=O)N1CCCC(N1)C(=O)OCC(C)(C)C2 , strictly under 6% or not?
Result: not satisfied

Query: Now try CC1(O)CCCC1n1c(=O)c(C(F)F)cc2cnc(NC3CCN(S(C)(=O)=O)CC3)nc21 (centres undefined) + CCn1c(-c2cccnc2C(C)OC)c2c3cc(ccc31)N1CCOC(CC(NC(=O)C(C(C)C)N(C)C(=O)C3(F)CCN(C(=O)C#CC(C)(C)N(C)C)CC3)C(=O)N3CCCC(N3)C(=O)OCC(C)(C)C2)C1 .
Result: not satisfied

Query: Now try NC1c2ccccc2OC12CCN(c1cnc3c(N4CCCc5ncccc54)n[nH]c3n1)CC2 (centres undefined) + CCn1c(-c2cc(N3CCN(C)CC3)cnc2C(C)OC)c2c3cc(ccc31)-c1csc(n1)CC(NC(=O)C1CC1C)C(=O)N1CCCC(N1)C(=O)OCC(C)(C)C2 .
Result: satisfied

Query: Now try CC1(O)CCCC1n1c(=O)c(C(F)F)cc2cnc(NC3CCN(S(C)(=O)=O)CC3)nc21 (centres undefined) + CCn1c(-c2cc(N3CCN(C)CC3)cnc2C(C)OC)c2c3cc(ccc31)-c1csc(n1)CC(NC(=O)C1CC1C)C(=O)N1CCCC(N1)C(=O)OCC(C)(C)C2 .
Result: not satisfied

Query: Now try C[C@@H](NC(=O)c1ncnc(N)c1Cl)c1ncc(C(=O)Nc2cc(C(F)(F)F)c(Cl)cn2)s1 + CCn1c(-c2cccnc2C(C)OC)c2c3cc(ccc31)N1CCOC(CC(NC(=O)C(C(C)C)N(C)C(=O)C3(F)CCN(C(=O)C#CC(C)(C)N(C)C)CC3)C(=O)N3CCCC(N3)C(=O)OCC(C)(C)C2)C1 .
Result: not satisfied

Query: Now try CCC(CC)c1cc(NC2CCC(N)C2)n2nccc2n1 (centres undefined) + CCn1c(-c2cccnc2C(C)OC)c2c3cc(ccc31)N1CCOC(CC(NC(=O)C(C(C)C)N(C)C(=O)C3(F)CCN(C(=O)C#CC(C)(C)N(C)C)CC3)C(=O)N3CCCC(N3)C(=O)OCC(C)(C)C2)C1 .
Result: not satisfied

Query: Now try CC(C)NCC(C(=O)N1CCN(c2ncnc3c2C(C)CC3O)CC1)c1ccc(Cl)cc1 (centres undefined) + CCn1c(-c2cc(N3CCN(C)CC3)cnc2C(C)OC)c2c3cc(ccc31)-c1csc(n1)CC(NC(=O)C1CC1C)C(=O)N1CCCC(N1)C(=O)OCC(C)(C)C2 .
Result: satisfied

Query: Now try CC(=O)OC12COC1CC(O)C1(C)C(=O)C(O)C3=C(C)C(OC(=O)C(O)C(NC(=O)OC(C)(C)C)c4ccccc4)CC(O)(C(OC(=O)c4ccccc4)C21)C3(C)C (centres undefined) + CCn1c(-c2cc(N3CCN(C)CC3)cnc2C(C)OC)c2c3cc(ccc31)-c1csc(n1)CC(NC(=O)C1CC1C)C(=O)N1CCCC(N1)C(=O)OCC(C)(C)C2 .
Result: satisfied
